Molecular target: FGFR1 (Homo sapiens, UniProt P11362)
Construct: made in house; host or cells: E. coli (BL21-derived), T7 phage
Sequence (P11362 22-822): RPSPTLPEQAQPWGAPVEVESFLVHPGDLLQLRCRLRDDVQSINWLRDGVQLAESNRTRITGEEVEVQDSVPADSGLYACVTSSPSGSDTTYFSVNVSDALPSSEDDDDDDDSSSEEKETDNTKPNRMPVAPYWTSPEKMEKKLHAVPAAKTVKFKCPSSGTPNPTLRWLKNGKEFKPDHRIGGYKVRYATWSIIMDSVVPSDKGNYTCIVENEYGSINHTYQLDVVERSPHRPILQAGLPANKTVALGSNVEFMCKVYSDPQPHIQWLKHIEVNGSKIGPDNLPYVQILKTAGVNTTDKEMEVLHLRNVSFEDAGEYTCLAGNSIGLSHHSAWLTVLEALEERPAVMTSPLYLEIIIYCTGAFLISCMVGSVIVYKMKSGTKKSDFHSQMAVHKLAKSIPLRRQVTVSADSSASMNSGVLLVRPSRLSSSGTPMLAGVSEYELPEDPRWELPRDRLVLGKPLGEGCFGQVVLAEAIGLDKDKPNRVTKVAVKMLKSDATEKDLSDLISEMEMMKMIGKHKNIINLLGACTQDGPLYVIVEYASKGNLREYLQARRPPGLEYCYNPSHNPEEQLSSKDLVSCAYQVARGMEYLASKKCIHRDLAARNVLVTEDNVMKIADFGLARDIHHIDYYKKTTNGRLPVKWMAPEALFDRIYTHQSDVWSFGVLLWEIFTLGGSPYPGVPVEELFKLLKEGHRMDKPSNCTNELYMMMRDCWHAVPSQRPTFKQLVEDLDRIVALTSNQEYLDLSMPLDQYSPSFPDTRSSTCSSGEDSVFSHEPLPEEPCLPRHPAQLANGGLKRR
Assay: Kinase binding assay (kinase-tagged T7 phage, affinity beads, qPCR), Kd
Conditions: read-out: FGFR1 (Kd nM)
Where a name gives a salt, the structure may show the parent alone.
Recorded Kd for the following compounds
OBSERVATION TYPE: Kd

> print(dat)
                                    compound  observed.measurement
 1  C[C@H](O)CNC1(C)CN(c2ncc(-c3n[nH]c4ccc(O[C@H](C)c5c(Cl)cncc5Cl)c(F)c34)cc2F)C1        300 to 1000 nM
 2  COc1cc2[nH]nc(-c3cnc(N4CC(C)(NCC(C)(C)O)C4)c(C#N)c3)c2cc1O[C@@H](C)c1c(Cl)cncc1Cl        300 to 1000 nM
 3  C[C@@H](Oc1cc2c(-c3cnc(N4CC(C)(CP(C)(C)=O)C4)c(F)c3)n[nH]c2cc1F)c1c(Cl)cncc1Cl            1 to 50 nM
 4  CCNC1(C)CN(c2ncc(-c3n[nH]c4cc(OC)c(O[C@H](C)c5c(Cl)cncc5Cl)cc34)cc2C#N)C1 [Example 341, HCl]            1 to 50 nM
 5  COC1(C)CN(C2(C)CN(c3ncc(-c4n[nH]c5ccc(O[C@H](C)c6c(Cl)cncc6Cl)cc45)cc3F)C2)C1            1 to 50 nM
 6  C[C@@H](Oc1ccc2[nH]nc(-c3ccc(N4CC(C)(CNS(C)(=O)=O)C4)nc3)c2c1)c1c(Cl)cncc1Cl            1 to 50 nM
 7  C[C@@H](Oc1ccc2[nH]nc(-c3cnc(N4CC(C)(N5CCOCC5)C4)c(C#N)c3)c2c1)c1c(Cl)cncc1Cl          50 to 300 nM
 8  CCC1(N)CN(c2ncc(-c3n[nH]c4ccc(O[C@H](C)c5c(Cl)cncc5Cl)cc34)cc2F)C1            1 to 50 nM
 9  Cc1ncc(Cl)c([C@@H](C)Oc2ccc3[nH]nc(-c4ccc(N5CC(C)(NC6COC6)C5)nc4)c3c2)c1Cl            1 to 50 nM
10  C[C@@H](Oc1ccc2[nH]nc(-c3ccc(N4CC(N)(CCS(C)(=O)=O)C4)nn3)c2c1)c1c(Cl)cncc1Cl            1 to 50 nM
11  C[C@@H](Oc1cc2c(-c3cnc(N4CC(C)(CP(C)(C)=O)C4)c(C#N)c3)n[nH]c2cc1F)c1c(Cl)cncc1Cl          50 to 300 nM
12  C[C@H]1CN(C2(C)CN(c3ncc(-c4n[nH]c5ccc(O[C@H](C)c6c(Cl)cncc6Cl)cc45)cc3F)C2)CCO1            1 to 50 nM
13  C[C@@H](Oc1ccc2[nH]nc(-c3cnc(N4CC(C)(N[C@@H]5CCOC5)C4)c(C#N)c3)c2c1)c1c(Cl)cncc1Cl          50 to 300 nM
14  COCCC1(N)CN(c2ncc(-c3n[nH]c4ccc(O[C@H](C)c5c(Cl)cncc5Cl)cc34)cc2F)C1            1 to 50 nM

* * *

Molecular target: FGFR1 (Homo sapiens)
Construct: made in house; host or cells: E. coli (BL21-derived), T7 phage
Test: Kinase binding assay (kinase-tagged T7 phage, affinity beads, qPCR), Kd
Details: read-out: FGFR1 (Kd nM)
Recorded Kd for the following molecules
OBSERVATION TYPE: Kd

> print(dat)
                         structure.as.smiles  observation.type  observed.measurement
 1  COc1cc2[nH]nc(-c3cnc(N4CC(CC#N)(N(C)C(C)C)C4)c(C#N)c3)c2cc1O[C@H](C)c1c(Cl)cncc1Cl                Kd            1 to 50 nM
 2  C=CCC1(N)CN(c2ncc(-c3n[nH]c4cc(OC)c(O[C@H](C)c5c(Cl)cncc5Cl)cc34)cc2C#N)C1                Kd            1 to 50 nM
 3  C[C@H](Oc1ccc2[nH]nc(-c3cnc(N4C[C@@H](CS(C)(=O)=O)[C@@H]4C)c(F)c3)c2c1)c1c(Cl)cncc1Cl                Kd        300 to 1000 nM
 4  CNC1(C)CN(c2ncc(-c3n[nH]c4ccc(O[C@H](C)c5c(Cl)cncc5Cl)cc34)cc2F)C1                Kd            1 to 50 nM
 5  Cc1ncc(Cl)c([C@@H](C)Oc2ccc3[nH]nc(-c4cnc(N5CC(CC#N)(NCC6CC6)C5)c(F)c4)c3c2)c1Cl                Kd          50 to 300 nM
 6  COc1cc2[nH]nc(-c3cnc(N4CC(C)(N(C)CC5CC5)C4)c(C#N)c3)c2cc1O[C@H](C)c1c(Cl)cncc1Cl                Kd            1 to 50 nM
 7  C[C@H](O)CNC1(C)CN(c2ncc(-c3n[nH]c4ccc(O[C@H](C)c5c(Cl)cncc5Cl)cc34)cc2F)C1                Kd            1 to 50 nM
 8  COc1cc2[nH]nc(-c3cnc(N4CC[C@](C)(N)C4)c(C#N)c3)c2cc1O[C@H](C)c1c(Cl)cncc1Cl                Kd            1 to 50 nM
 9  C[C@@H](Oc1ccc2[nH]nc(-c3cnc(N4CC(C)(NCCS(C)(=O)=O)C4)c(F)c3)c2c1)c1c(Cl)cncc1Cl                Kd            1 to 50 nM
10  C[C@@H](Oc1ccc2[nH]nc(-c3ccc(N4CC(N)(Cc5ccnn5C)C4)nn3)c2c1)c1c(Cl)cncc1Cl                Kd            1 to 50 nM
11  C[C@@H](Oc1ccc2[nH]nc(-c3cnc(N4CC(C)(CS(C)(=O)=O)C4)nc3)c2c1)c1c(Cl)cncc1Cl                Kd            1 to 50 nM
12  C[C@@H](Oc1ccc2[nH]nc(-c3cnc(N4CC(C)(NCC5CC5)C4)c(C#N)c3)c2c1F)c1c(Cl)cncc1Cl                Kd             > 1000 nM
13  C=CCNC1(C)CN(c2ccc(-c3n[nH]c4ccc(O[C@H](C)c5c(Cl)cncc5Cl)cc34)cn2)C1                Kd            1 to 50 nM
14  COC1(C)CN(C2(C)CN(c3ncc(-c4n[nH]c5ccc(O[C@H](C)c6c(Cl)cncc6Cl)cc45)cc3C#N)C2)C1                Kd            1 to 50 nM
15  C[C@@H](Oc1ccc2[nH]nc(-c3ccc(N4CC(C)(N5CC(C)(O)C5)C4)nc3)c2c1)c1c(Cl)cncc1Cl                Kd            1 to 50 nM
16  CC[C@@H](C)NC1(C)CN(c2ncc(-c3n[nH]c4cc(OC)c(O[C@H](C)c5c(Cl)cncc5Cl)cc34)cc2C#N)C1                Kd            1 to 50 nM
17  COc1cc2[nH]nc(-c3cnc(N4CC(N)(CC5CC5)C4)c(C#N)c3)c2cc1O[C@H](C)c1c(Cl)cncc1Cl                Kd            1 to 50 nM
18  C[C@@H](Oc1ccc2[nH]nc(-c3cnc(N4CC(C)(NC5CS(=O)(=O)C5)C4)c(C#N)c3)c2c1)c1c(Cl)cncc1Cl                Kd          50 to 300 nM
19  CCOCC1(N)CN(c2ccc(-c3n[nH]c4ccc(O[C@H](C)c5c(Cl)cncc5Cl)cc34)nn2)C1                Kd            1 to 50 nM
20  C[C@@H](Oc1ccc2[nH]nc(-c3cnc(N4CC(C)(CN5CCCC5)C4)c(F)c3)c2c1)c1c(Cl)cncc1Cl                Kd            1 to 50 nM
21  CC(C)CNC1(C)CN(c2ncc(-c3n[nH]c4ccc(O[C@H](C)c5c(Cl)cncc5Cl)cc34)cc2F)C1                Kd            1 to 50 nM
22  C[C@@H](O)CC1(N)CN(c2ccc(-c3n[nH]c4ccc(O[C@H](C)c5c(Cl)cncc5Cl)cc34)nn2)C1                Kd            1 to 50 nM
23  Cc1ncc(Cl)c([C@@H](C)Oc2ccc3[nH]nc(-c4cnc(N5CC(C)(NCC6CC6)C5)c(F)c4)c3c2)c1Cl                Kd            1 to 50 nM
24  C[C@@H](Oc1ccc2[nH]nc(-c3cnc(N4CC(C)(NCCS(C)(=O)=O)C4)c(C#N)c3)c2c1)c1c(Cl)cncc1Cl                Kd            1 to 50 nM
25  COc1cc2[nH]nc(-c3cnc(N4CC(C)(N5CCOCC5)C4)c(C#N)c3)c2cc1O[C@H](C)c1c(Cl)cncc1Cl                Kd            1 to 50 nM
26  COc1cc2[nH]nc(-c3cnc(N4CC(C)(NC[C@@H](C)O)C4)c(F)c3)c2cc1O[C@H](C)c1c(Cl)cncc1Cl                Kd            1 to 50 nM
